The next entries give measured AC50 for Sodium-dependent serotonin transporter (Homo sapiens, UniProt P31645).

Lookup: AC50 / Sodium-dependent serotonin transporter (Homo sapiens, UniProt P31645) / CCCCC1C(=O)N(c2ccccc2)N(c2ccc(O)cc2)C1=O (stereo not drawn) [OXYPHENBUTAZONE ANHYDROUS]
> 30 µM

Next entry: CC[C@]12CCCN3CCc4c(n(c5ccccc45)[C@@](O)(C(=O)OC)C1)[C@@H]32
> 30 µM

Next entry: CC[C@@H]1C[C@]1(NC(=O)[C@@H]1C[C@@H]2CN1C(=O)[C@H](C(C)(C)C)NC(=O)OCC(C)(C)CCCCc1cccc3c1CN(C3)C(=O)O2)C(=O)NS(=O)(=O)C1CC1
> 30 µM

Next entry: CC1(C)S[C@@H]2[C@H](/N=C/N3CCCCCC3)C(=O)N2[C@H]1C(=O)O
> 30 µM

Next entry: Cc1cn([C@H]2O[C@@H](CO)[C@H](O)[C@H]2F)c(=O)[nH]c1=O
> 30 µM

Next entry: Clc1ccc(C(Cn2ccnc2)OCc2csc3c(Cl)cccc23)c(Cl)c1 (stereo not drawn)
2.89 µM

Next entry: C[C@@H]1C[C@H]2[C@@H]3C[C@H](F)C4=CC(=O)C=C[C@]4(C)[C@H]3[C@@H](O)C[C@]2(C)[C@@]1(O)C(=O)CO
> 30 µM

Next entry: Cc1cc(=O)oc2cc(O)ccc12
> 30 µM

Next entry: C[N+]1(C)CCCC(OC(=O)C(O)(c2ccccc2)c2ccccc2)C1 (stereo not drawn) [MEPENZOLATE]
20.4 µM

Next entry: C[C@H](N[C@@H](CCc1ccccc1)C(=O)O)C(=O)N1Cc2ccccc2C[C@H]1C(=O)O
> 30 µM

Next entry: COc1cccc(C(=O)CCN[C@@H](C)[C@H](O)c2ccccc2)c1
4.77 µM

Next entry: CCCCc1oc2ccc(NS(C)(=O)=O)cc2c1C(=O)c1ccc(OCCCN(CCCC)CCCC)cc1
3.31 µM

Next entry: COC(=O)[C@@H](N)Cc1ccc(O)c(O)c1
> 30 µM

Next entry: C[Se]CC[C@H](N)C(=O)O
> 30 µM

Next entry: Cc1ccc(S(=O)(=O)NC(=O)NC2CCCCC2)cc1 [GLYCYCLAMIDE]
> 30 µM

Next entry: C[N+](C)(CCCCCC[N+](C)(C)C1c2ccccc2-c2ccccc21)C1c2ccccc2-c2ccccc21
3.02 µM

Next entry: CC(=O)NO [ACETOHYDROXAMIC ACID]
> 30 µM

Next entry: Cc1ccccc1C(=O)Nc1ccc(C(=O)N2CCCC(O)c3cc(Cl)ccc32)c(C)c1 (stereo not drawn)
> 30 µM

Next entry: Cc1ncc2c(c1O)COC2c1ccc(Cl)cc1 (stereo not drawn)
> 30 µM

Next entry: COc1ccc2c(C(=S)N(C)CC(=O)O)cccc2c1C(F)(F)F
> 30 µM

Next entry: CN1CCCN(C(c2ccccc2)c2ccc(Cl)cc2)CC1 (stereo not drawn)
2.98 µM

Next entry: CC(C)[C@@H]1CC[C@@H](C)C[C@H]1O
> 30 µM

Next entry: O=C(O)CN(CCN(CC(=O)O)CC(=O)O)CCN(CC(=O)O)CC(=O)O
0.0429 µM

Next entry: C[N+](C)(C)CCOP(=O)(O)OP(=O)([O-])OC[C@H]1O[C@@H](n2ccc(N)nc2=O)[C@H](O)[C@@H]1O
> 30 µM

Next entry: Cc1oc(=O)oc1COC(=O)[C@@H]1N2C(=O)[C@@H](NC(=O)[C@H](N)c3ccccc3)[C@H]2SC1(C)C
> 30 µM

Next entry: Cc1cc2c(cc1S(N)(=O)=O)S(=O)(=O)CCC2
> 30 µM

Next entry: CN[C@@H]1[C@H](O[C@H]2[C@H](O[C@H]3[C@H](O)[C@@H](O)[C@H](NC(=N)N)[C@@H](O)[C@@H]3NC(=N)N)O[C@@H](C)[C@]2(O)CO)O[C@@H](CO)[C@H](O)[C@H]1O [DIHYDROSTREPTOMYCIN]
> 30 µM

Next entry: CC(C)(C)NC(=O)N[C@H](C(=O)N1C[C@H]2[C@@H]([C@H]1C(=O)NC(CC1CCC1)C(=O)C(N)=O)C2(C)C)C(C)(C)C (stereo partly drawn)
> 30 µM

Next entry: CC(OCCN1CCCCCC1)(c1ccccc1)c1ccc(Cl)cc1 (stereo not drawn)
21 µM

Next entry: CC(COc1ccccc1)NC(C)C(O)c1ccc(O)cc1 (stereo not drawn)
5.55 µM

Next entry: CC(C)C(=O)Oc1ccc(CO)cc1[C@H](CCN(C(C)C)C(C)C)c1ccccc1
> 30 µM

Next entry: C=N[C@@H](C(=O)N[C@@H]1C(=O)N2[C@@H]1SC(C)(C)[C@@H]2C(=O)O)c1ccccc1
> 30 µM

Next entry: C[C@H]1CN(C[C@H](Cc2ccccc2)C(=O)NCC(=O)O)CC[C@@]1(C)c1cccc(O)c1
> 30 µM
